- Test system: PC-3
- experimental_protocol: NCI tumour cell line growth inhibition, 48 h
Calls of active or inactive are those of the source. Cut-off read from the data, not from the text of the source: active = GI50 up to about 1.1 µM and inactive = higher.
GI50 values for the compounds below.

Assign GI50 to the following record: C(=N/Nc1ccccn1)/c1cccnc1
> 100 µM (inactive)

Give the reported value of GI50 for this record: CCC(=O)N/S(=N/S(=O)(=O)c1ccccc1)C(Cl)(Cl)Cl (centres undefined)
> 100 µM (inactive)

Tell me measured GI50 for COC(=O)C1Cc2ccc3c(c2C1=O)CCCC3 (centres undefined) please.
26.2 µM (inactive)

Give GI50 for the following compound: c1ccc2c(c1)-c1nc3ccccc3cc1C2N1CCOCC1 (centres undefined)
> 100 µM (inactive)

====

Collected GI50 values appear next to each entry.
- Test system: SF-268
- experimental_protocol: NCI tumour cell line growth inhibition, 48 h
Calls of active or inactive are those of the source. No stated cut-off is given here; in the data, active = GI50 up to about 1.1 µM and inactive = higher.

Below, each entry is followed by its recorded GI50 result.
>  <structure_smiles_string>
C/C(=C1\N=C(c2ccccc2)OC1=O)c1ccccc1

>  <measured_metric>
GI50

>  <readout_value>
> 100 µM (inactive)

$$$$
>  <structure_smiles_string>
CC(=O)N/C(=C\c1ccc(Cc2nc3c([nH]2)C(=O)c2ccccc2C3=O)cc1)c1nc2c([nH]1)C(=O)c1ccccc1C2=O

>  <measured_metric>
GI50

>  <readout_value>
> 100 µM (inactive)

$$$$

Okay, next one:
Given Oc1c(Br)cc(/C=C/c2ccnc(/C=C/c3cc(Br)c(O)c(Br)c3)c2)cc1Br , respond with its GI50.
40.3 µM (inactive)

====

- System: KM12
- experimental_protocol: NCI tumour cell line growth inhibition, 48 h
The source made the active and inactive calls. No stated cut-off is given here; in the data, active = GI50 up to about 1.1 µM and inactive = higher.
Can you answer with just one of these options? Yes = active, No = inactive

Sample answers from the record:
>  <compound>
C/C(=C1\N=C(c2ccccc2)OC1=O)c1ccccc1

>  <test_target>
KM12

>  <class_name>
No

$$$$
>  <compound>
CCc1ccccc1N1CCN(C(=O)c2cc(OC)c(OC)c(OC)c2)CC1

>  <test_target>
KM12

>  <class_name>
Yes

$$$$
>  <compound>
N#Cc1c(-c2cccc(Br)c2)cc(-c2ccc(Cl)cc2)nc1N

>  <test_target>
KM12

>  <class_name>
No

$$$$
>  <compound>
N#C/C(=C/NC(=S)Nc1ccc(S(N)(=O)=O)cc1)C(N)=O

>  <test_target>
KM12

>  <class_name>
No

$$$$
>  <compound>
CCN(CC)CCNC(=O)c1cc2cc(NC(=O)c3cc4cc([N+](=O)[O-])ccc4[nH]3)ccc2[nH]1

>  <test_target>
KM12

>  <class_name>
No

$$$$

Hi, sorry to bother you, what did the test record for COc1ccc(C(=O)/C=C/c2ccc(OCC(=O)N3CCN(c4ccccc4)CC3)cc2)cc1OC ?
No

Which outcome did this test record for the compound Cc1[nH]c2ncn(/N=C/c3ccccc3O)c(=N)c2c1Cc1ccccc1 ?
No

Could you kindly confirm the outcome this assay logged for COC(=O)C1Cc2ccc3c(c2C1=O)CCCC3 (configuration not stated) ?
No

Entry CC(C)(C)C(=O)OCC1C(=O)OCC1C(=O)N1Cc2cc3ccccc3nc2C1 (configuration not stated) : call = ?
No

Called result for O=C1CN2C(Cl)(Cl)C2(c2ccccc2)c2cc(Cl)ccc2N1CC1CC1 (configuration not stated)
No

Outcome logged for O=C(O)c1cc(-c2ccc3cc4c(cc3c2)OCO4)nc2ccccc12 in this assay:
No

Please share the test call associated with C=CC(=O)NC(O)(C(=O)OCC)C(F)(F)F (configuration not stated) .
No

====

- System: LOX IMVI
- experimental_protocol: NCI tumour cell line growth inhibition, 48 h
Active and inactive are the calls of the source. No stated cut-off is given here; in the data, active = GI50 up to about 1.1 µM and inactive = higher.
measured_metric: GI50

Return reported GI50. Input molecule: C/C(CC(=O)Nc1cccc([N+](=O)[O-])c1)=N/NC(N)=S
> 100 µM (inactive)

Using known records, supply GI50 for CC1CC[C@@H](C(C)C)[C@H](Oc2nnc(C3OC(CO)C(O)C3O)o2)C1 (stereo partly specified)
> 100 µM (inactive)

====

- Test system: MDA-MB-231
- experimental_protocol: NCI tumour cell line growth inhibition, 48 h
Active and inactive are the calls of the source. Cut-off read from the data, not from the text of the source: active = GI50 up to about 1.1 µM and inactive = higher.
// classify into active, inactive

// below: answered molecules
>  <molecule>
CN(/N=C/c1ccc(C(=O)O)cc1)C1=NCCCCN1

>  <class_name>
inactive

$$$$
>  <molecule>
COc1ccc(C(=O)/C=C/c2ccc(OCCCCCCCCCCOc3ccc(/C=C/C(=O)c4ccc(OC)c(OC)c4)cc3)cc2)c(OC)c1

>  <class_name>
inactive

$$$$
>  <molecule>
CCOC(=O)c1nc2ccccc2nc1Nc1ccc(OC)cc1

>  <class_name>
inactive

$$$$

// outcome(item) with item = CCN1CCC(O)(/C=C/c2ccc(C)cc2)C(C(=O)/C=C/c2ccc(C)cc2)C1 (stereo unspecified)
inactive

Recorded test call requested for COc1cc(C(=O)NC2CCc3cc(OC)c(OC)c(OC)c3-c3ccc(OC)c(=O)cc32)cc(OC)c1OC (stereo unspecified)
active

Would you mind telling me which call this test gave CSC(SC)=C(C#N)C(=O)Nc1ccc(Cl)cc1 ?
inactive

What outcome does the record of this test show for c1ccc(C2CC(NC3CCCCC3)=Nc3ccccc3N2)cc1 (stereo unspecified) ?
inactive

So what was the verdict on O=C1OC2C=CCC1C2 (stereo unspecified) in this test?
inactive

Record request — test call for COc1ccc(-c2c3c(n(C4OC(CO)C(O)C(O)C4O)c(=S)c2C#N)CCC3)cc1 (stereo unspecified)
inactive

Please let me know the test result on file for CCOC(=O)C1=C(C)N(c2ccc(Cl)cc2)C2(O)C=CC(=O)C3C(=O)N(c4ccccc4)C(=O)C132 (stereo unspecified) .
inactive

Could you check what this test reported for COC(=O)C1Cc2ccc3c(c2C1=O)CCCC3 (stereo unspecified) ?
inactive

====

- Test system: DMS-273
- experimental_protocol: NCI tumour cell line growth inhibition, 48 h
Activity calls are given as the source filed them. Rule as the data show it: active = GI50 up to about 1.1 µM and inactive = higher.
measured_metric: GI50

>  <compound>
COc1ccc(/C=C/C(=O)c2c(-c3ccccc3)nn(C)c(=O)c2N2CC2C)cc1 (configuration not stated)

>  <GI50>
21 µM (inactive)

$$$$

Consider the compound COc1cc(C2C(=O)C(Cl)N2Nc2nc(C)cc(O)n2)cc(OC)c1OC (configuration not stated) . State its measured GI50.
10.4 µM (inactive)

Quickly give me recorded GI50 for CN1N=C2c3ccccc3OC(c3ccccc3)[C@H]2C1c1ccccc1 (some centres not stated)
> 100 µM (inactive)

Return reported GI50. Input compound: CCN(CC)CC(C(=O)Nc1c(C)cccc1C)/C(C)=N/NC(N)=S (configuration not stated)
> 100 µM (inactive)

Give a short answer stating reported GI50 for CC12CCCCC1C(=O)C2(Cl)Cl (configuration not stated) .
2.21 µM (inactive)

Indicate the recorded GI50 value for this compound: CCCCCCCCCCCCCCCC[N+](C)(C)Cc1ccc(C[N+](C)(C)CCCCCCCCCCCCCCCC)cc1
1.98 µM (inactive)

State, in one line, measured GI50 of Cc1cc2c(cc1C)[n+]([O-])c(-c1c(Cl)cccc1Cl)c(N)[n+]2[O-]
32.1 µM (inactive)

====

Some compounds, each annotated with its measured GI50.
- System: SK-MEL-5
- experimental_protocol: NCI tumour cell line growth inhibition, 48 h
Activity calls are given as the source filed them. Cut-off read from the data, not from the text of the source: active = GI50 up to about 1.1 µM and inactive = higher.

Worked examples follow.
>  <compound>
COCCO

>  <readout_value>
> 100 µM (inactive)

$$$$
>  <compound>
O=C(O)CCC(O)=C1S(=O)(=O)OCCOS1(=O)=O

>  <readout_value>
> 100 µM (inactive)

$$$$
>  <compound>
CC1(C)N=C(Oc2ccccc2)n2nccc2N1

>  <readout_value>
> 100 µM (inactive)

$$$$

Report its GI50 with SK-MEL-5 as the test system: Oc1c2cccc1Cc1cccc3c1OCCOCCOCCOCCOc1c(cccc1Cc1cccc(c1O)C3)C2
> 100 µM (inactive)

Determine reported GI50 for CC12CCCCC1C(=O)C2(Cl)Cl (stereo not given) ; test system: SK-MEL-5.
1.83 µM (inactive)

Recall the reported GI50 of CC(=O)NNc1nc(C)c(C(/C=C/c2ccc(/C=C/C(=N\NC(=O)c3ccncc3)c3sc(NNC(C)=O)nc3C)cc2)=N/NC(=O)c2ccncc2)s1 on SK-MEL-5 and write it down.
> 100 µM (inactive)

Recall the reported GI50 of C=CCOC(C)n1c(C)cc(=O)n(C(C)OCC=C)c1=O (stereo not given) when tested on SK-MEL-5.
> 100 µM (inactive)

Tell me its GI50 on SK-MEL-5: C=CCN(N=O)C(=O)NCCCC(NC(C)=O)C(=O)NCc1ccccc1 (stereo not given)
> 100 µM (inactive)

Name the value of GI50 reported for OCCN(CCO)c1cccc(N(CCO)CCO)n1 when tested on SK-MEL-5.
> 100 µM (inactive)

Name the recorded GI50 of Cc1cn(C2CC(N/C(=N/C#N)NCC3OC(n4cnc5c(N)ncnc54)CC3O)C(CO)O2)c(=O)[nH]c1=O (stereo not given) , assay system SK-MEL-5.
> 100 µM (inactive)

Would you please give the reported GI50 of CCOC(=O)C#Cc1ccccc1 with SK-MEL-5?
3.72 µM (inactive)
